Target: cloned human M4 receptor (Homo sapiens)
Sequence (P08173 1-479): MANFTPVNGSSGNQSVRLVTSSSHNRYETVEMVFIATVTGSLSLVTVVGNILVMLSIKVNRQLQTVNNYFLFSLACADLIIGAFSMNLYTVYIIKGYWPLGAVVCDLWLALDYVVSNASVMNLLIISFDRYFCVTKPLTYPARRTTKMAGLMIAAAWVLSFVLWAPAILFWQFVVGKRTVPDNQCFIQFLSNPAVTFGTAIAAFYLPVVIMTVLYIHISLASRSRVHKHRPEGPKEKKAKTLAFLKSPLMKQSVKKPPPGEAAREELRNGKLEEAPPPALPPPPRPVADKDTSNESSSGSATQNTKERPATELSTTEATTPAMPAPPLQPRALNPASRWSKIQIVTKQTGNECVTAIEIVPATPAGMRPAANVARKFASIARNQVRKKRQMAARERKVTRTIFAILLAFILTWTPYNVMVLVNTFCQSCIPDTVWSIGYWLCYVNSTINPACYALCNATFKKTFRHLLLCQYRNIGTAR
Assay: hM4 receptor GTPγS binding
Conditions: CHO membranes expressing hM4, [35S]GTPγS binding
We begin with a simple list: items and their reported EC50.
observationType: EC50

[[record]]
compound = "CC1(N2CCC(N3C(=O)N[C@H]4CCCC[C@@H]43)CC2)CCN(C(=O)C2CC2)CC1"
observationtype = "EC50"
result = "> 6.5 µM"

[[record]]
compound = "CC1(N2CCC(N3C(=O)N[C@@H]4CCCC[C@H]43)CC2)CCN(C(=O)C2CC2)CC1"
observationtype = "EC50"
result = "> 30 µM"

[[record]]
compound = "C#CCOC(=O)N1CCC(C)(N2CCC(N3C(=O)N[C@H]4CCCC[C@@H]43)CC2)C1 (mixture of isomers)"
observationtype = "EC50"
result = "> 13 µM"

[[record]]
compound = "CC(C)OC(=O)N1CCC(C)(N2CCC(N3C(=O)C[C@H]4CCCC[C@@H]43)CC2)CC1"
observationtype = "EC50"
result = "> 30 µM"

[[record]]
compound = "COC(=O)N1CCC(C)(N2CCC(N3C(=O)N[C@H]4CCCC[C@@H]43)CC2)C1 (mixture of isomers)"
observationtype = "EC50"
result = "> 30 µM"

[[record]]
compound = "CCOC(=O)N1CCC(C)(N2CCC(N3C(=O)C[C@@H]4CCCC[C@H]43)CC2)C1 (stereo in doubt)"
observationtype = "EC50"
result = "17 µM"

[[record]]
compound = "CC(C)OC(=O)N1CCC(C)(N2CCC(N3C(=O)N[C@@H]4CCCC[C@@H]43)CC2)CC1 (relative stereo)"
observationtype = "EC50"
result = "> 30 µM"

